This collection of values is drawn from the supplement of paper PMC6555819.

- Tested on: RARg homodimer (NR concentration 270 nM)
- assayExplanation: PBM binding z-score (relative to random genomic background probes); higher = stronger binding; sequences stand for … in GC…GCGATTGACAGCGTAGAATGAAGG
I would appreciate it if you labelled entries Y when PBM binding z-score is 2 or higher, otherwise N.

Here's what some known entries look like.
- seqString: "TCATATAGGTAAAAGGTGAGAGTCGGTGTGGTAA"
  studyTarget: "RARg homodimer (NR concentration 270 nM)"
  cat: "N"
- seqString: "CCTAGTAGGTCAAGGTCACACACGCTATAGGTAC"
  studyTarget: "RARg homodimer (NR concentration 270 nM)"
  cat: "Y"
- seqString: "ATATCAAGGTGATCGTGAGGTCGTTGATACTAAC"
  studyTarget: "RARg homodimer (NR concentration 270 nM)"
  cat: "N"
- seqString: "GCTTACGGGTCAAAGGGTATAGCATGAATAGAAT"
  studyTarget: "RARg homodimer (NR concentration 270 nM)"
  cat: "Y"
- seqString: "GCTAGTTGGTCAGTAAGAGGTCACACACCGGTCG"
  studyTarget: "RARg homodimer (NR concentration 270 nM)"
  cat: "Y"

**Query** Please check the record GGAACGAGGGCAAGATGATAGCAGAGTTTGATGG and state if its PBM binding z-score is at or above 2.
**Result** N

**Query** And then CCGACTGGGGCAACGTTACCATAACGCACAGCCA , what is it?
**Result** N

====

- Tested on: PPARg DBDmut:RXRa IVT, anti-PPARg (DBD mutation: PPARg1 K132A/R137A, NR concentration 270 nM, RXRa partner concentration 90 nM)
- assayExplanation: PBM binding z-score (relative to random genomic background probes); higher = stronger binding; sequences stand for … in GC…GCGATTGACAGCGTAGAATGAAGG
endpointLabel: PBM binding z-score
One number for each entry.

Reference set (2 entries):
- seqString: "ATCGAAAGGCCGTGAGGTGAGTATACAGAAAGGC"
  PBM binding z-score: 0.487
- seqString: "TCTTGTAGATCAGCATGTTAAGAAAGCTGGCCAA"
  PBM binding z-score: -0.2

**Query** For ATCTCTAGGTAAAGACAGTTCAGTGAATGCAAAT , what is its reported PBM binding z-score?
**Result** 0.488

====

- Tested on: RXRa homodimer (NR concentration 180 nM)
- assayExplanation: PBM binding z-score (relative to random genomic background probes); higher = stronger binding; sequences stand for … in GC…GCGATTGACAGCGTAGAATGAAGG
Tag: fulfilled if measured PBM binding z-score is not below 3, not fulfilled if it is.

Would you please look over these solved cases?
- seqString: "CGAACTAGGTCAATGACAGTGAATCTCCGCACGC"
  cat: "not fulfilled"
- seqString: "ACTAGTTGGTCAGCTGAGGTCAGACACAATTCGG"
  cat: "not fulfilled"
- seqString: "CCCCGGAGGACAACAGGAGGTCAGAGCTGCCAGA"
  cat: "not fulfilled"
- seqString: "CCGACTGGGGTAAAGGTTACCATACTCAGTACGA"
  cat: "fulfilled"
- seqString: "GCATATAGGTAATACTAGGTGAAAGTCCGATTGT"
  cat: "not fulfilled"

Query sequence follows.
**Query** Does the sequence CTCGAAAGGTCGGTTGAGGTGAGTAGACGGATAA have recorded PBM binding z-score that is 3 or more?
**Result** not fulfilled

====

- Test system: LXRa:RXRa (NR concentration 270 nM, RXRa partner concentration 90 nM)
- assayExplanation: PBM binding z-score (relative to random genomic background probes); higher = stronger binding; sequences stand for … in GC…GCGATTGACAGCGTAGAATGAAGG
# binarize PBM binding z-score: threshold 0.5 inclusive, high side T, low side F

Worked examples follow.
- seqString: "GCGACTGGGGCAAAGCACGTTACCATAAGGTTGG"
  cat: "F"
- seqString: "TCATATAGGTACAGGTGAAAGTCGAACGATATGA"
  cat: "T"
- seqString: "TCTCGGAGGACACGAACGGTCAGAGCTCGACATC"
  cat: "F"

**Query** Could you verify whether the entry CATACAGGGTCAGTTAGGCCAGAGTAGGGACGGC shows PBM binding z-score of no less than 0.5?
**Result** T

**Query** And then TCTATAAGTTGAAGGGCAACCGACGAGTCCGTTT , what is it?
**Result** T

**Query** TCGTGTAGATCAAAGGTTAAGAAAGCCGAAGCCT ?
**Result** T

**Query** Then CCAGACAGGTGAGAAGGTAACTAAGCCTCGATTA ?
**Result** F

**Query** Next up: CCTTCCGGGTCACTGACAGGTTATAGCATTTGGA
**Result** T

**Query** Do the same for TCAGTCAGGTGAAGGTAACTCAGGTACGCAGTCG please
**Result** T

**Query** Please do the same for CAAACTAGGTCACGAAAGGTCAAAGACGAATGAC as well.
**Result** T

====

- System: LXRa homodimer (NR concentration 270 nM)
- assayExplanation: PBM binding z-score (relative to random genomic background probes); higher = stronger binding; sequences stand for … in GC…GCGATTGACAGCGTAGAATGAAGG
I'd be grateful if you could share measured PBM binding z-score for these entries.
One number for each entry.

- seqString: "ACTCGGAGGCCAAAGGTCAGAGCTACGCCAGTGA"
  PBM binding z-score: 1.02
- seqString: "CCTTACGGGTCACTGCCAGGTTATAGCATTTGGA"
  PBM binding z-score: 0.268
- seqString: "CCTACTGGGCCACGAAACGTCATTGATTCAGTGA"
  PBM binding z-score: -0.582
- seqString: "CCTATTAGTTGATCATAAGGGCAACCGAAGCTCG"
  PBM binding z-score: 0.608
- seqString: "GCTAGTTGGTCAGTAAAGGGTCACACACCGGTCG"
  PBM binding z-score: 1.36

Okay, now this sequence:
**Query** Provide value of PBM binding z-score for this record tested with LXRa homodimer (NR concentration 270 nM): CGAACGAGGGCATGAGTTGTTAGCAAATGCCGAT
**Result** -0.503

====

Field: PBM binding z-score. Provide a value for each of the sequences that follow.
- Tested on: PPARg:RXRa 90nM:30nM, anti-RXR (NR concentration 90 nM, RXRa partner concentration 30 nM)
- assayExplanation: PBM binding z-score (relative to random genomic background probes); higher = stronger binding; sequences stand for … in GC…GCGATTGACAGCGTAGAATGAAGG

Hey, can you go through the list below and give me PBM binding z-score for every item?
1. GGTGCTAGGTCAGGTTGGTCAGCTAACGGGTACG
2. TCTTGTTGATCAGCAGGTTAAGAAAGCTGGCCAA
3. CCAGACAGGCGAAAGGTAACTCAGTCTGGTACGC

**Result**
1. 1.35
2. 1.66
3. 2.22

**Query** Which PBM binding z-score is listed for TCATGTAGGTAAATGCTAGGTGAAAGTCCGATCT ?
**Result** 2.6

====

- Tested on: PPARg homodimer (NR concentration 180 nM)
- assayExplanation: PBM binding z-score (relative to random genomic background probes); higher = stronger binding; sequences stand for … in GC…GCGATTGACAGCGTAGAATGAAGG
Respond with 1.0 for PBM binding z-score values of 1 and above, 0.0 for values below.

Reference set, count: 5
- seqString: "TCATACAGGTGAAGGTAACTCAGGTACGCAGTCG"
  cat: 1.0
- seqString: "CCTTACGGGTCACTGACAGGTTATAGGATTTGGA"
  cat: 1.0
- seqString: "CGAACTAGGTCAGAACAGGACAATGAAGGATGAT"
  cat: 0.0
- seqString: "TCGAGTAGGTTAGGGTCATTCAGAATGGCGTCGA"
  cat: 1.0
- seqString: "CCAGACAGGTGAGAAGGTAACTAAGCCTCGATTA"
  cat: 0.0

**Query** hey, is PBM binding z-score for this one >= 1? CCTACTGCGCCACGAAAGGTCATTGATTCAGTGA
**Result** 1.0

**Query** Same thing, different sequence: TCTTGTAGATGAGCAGGTTAAGAAAGCTGGCCAA
**Result** 0.0

**Query** Do the same for CAAACTAGGTCACCGGAAGGTCAAACTCCGCATG please
**Result** 1.0

**Query** // next record AATACAGAGTCACTAGGCCAGAGTAGGTACGAAT
**Result** 0.0

**Query** Further, for TTACCAACGTGAAAGGTCGTTGATGCACGCCTTG ?
**Result** 1.0

**Query** Here is the next sequence: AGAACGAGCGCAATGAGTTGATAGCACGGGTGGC
**Result** 0.0

**Query** Similarly, AGAACGAGGGCGCGCTGAGTTGATAGCAGAGTAG ?
**Result** 0.0

**Query** // same read-out, input: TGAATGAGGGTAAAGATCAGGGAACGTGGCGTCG
**Result** 1.0

**Query** // query: GGAACGAGGGCATTCGAGTTGACAGCATGGCGAT
**Result** 0.0

**Query** Another: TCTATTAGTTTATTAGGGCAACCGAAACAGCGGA
**Result** 1.0

**Query** Then TAGCCTAGGACATTGGGCCAGTATAGTACGCATC ?
**Result** 0.0

**Query** Same again, this time with CCGAGTAGGTTATGTGGCATTCAGGCAACGGTGA
**Result** 0.0

**Query** Then what about the sequence CGTCCAAGGTCCGAGAGGTCAGTGAATGCCGAGT ?
**Result** 1.0
